# Tested on: LC4-1 (B-Lymphoblastic Leukemia)
# assayExplanation: Bliss excess, mean over the matrix (fraction); higher = more synergy
Each entry gets not met if its Bliss excess stays under -0.04, and met if its Bliss excess is -0.04 or above.

* NC1(C(=O)N[C@@H](CCO)c2ccc(Cl)cc2)CCN(c2ncnc3[nH]ccc23)CC1 [Capivasertib] + Cn1cnc2c(F)c(Nc3ccc(Br)cc3Cl)c(C(=O)NOCCO)cc21 [Selumetinib] (first compound max 10 µM, 7x7, partner max 10 µM) | met
* COc1cccc(OCCCN)c1-c1cc(Nc2cnc(C#N)cn2)n[nH]1 [Prexasertib] + CCc1c2c(nc3ccc(O)cc13)-c1cc3c(c(=O)n1C2)COC(=O)[C@]3(O)CC [SN-38] (first compound max 1 µM, 7x7, partner max 0.3 µM) | not met
* CC1(C)CCC(CN2CCN(c3ccc(C(=O)NS(=O)(=O)c4ccc(NCC5CCOCC5)c([N+](=O)[O-])c4)c(Oc4cnc5[nH]ccc5c4)c3)CC2)=C(c2ccc(Cl)cc2)C1 [Venetoclax] + C[C@@H](Nc1cc(F)cc(F)c1)c1cc(C(=O)N(C)C)cc2c(=O)cc(N3CCOCC3)oc12 [AZD8186] (first compound max 1 µM, 7x7, partner max 3 µM) | met
* C[C@@H](Oc1cc(-c2cnn(C3CCNCC3)c2)cnc1N)c1c(Cl)ccc(F)c1Cl [Crizotinib] + CC1=C(C(=CC=C1)Cl)NC(=O)C2=CN=C(S2)NC3=CC(=NC(=N3)C)N4CCN(CC4)CCO [Dasatinib] (first compound max 10 µM, 7x7, partner max 2 µM) | met

hey, is Bliss excess for this one >= -0.04? NC1(C(=O)N[C@@H](CCO)c2ccc(Cl)cc2)CCN(c2ncnc3[nH]ccc23)CC1 [Capivasertib] + CCN(CCO)CCCOc1ccc2c(Nc3cc(CC(=O)Nc4cccc(F)c4)[nH]n3)ncnc2c1 [AZD2811] (first compound max 10 µM, 7x7, partner max 1 µM)
met

Does the reported Bliss excess for Cn1cnc2c(F)c(Nc3ccc(Br)cc3Cl)c(C(=O)NOCCO)cc21 [Selumetinib] + CC(C)n1c(=O)n(C)c2cnc3cc(F)c(-c4ccc(OCCCN5CCCCC5)nc4)cc3c21 [AZD1390] (first compound max 10 µM, 7x7, partner max 0.3 µM) fall at or above the -0.04 mark?
met

Does the compound CN(C)CCCOc1ccc(-c2ccc3ncc4c(c3c2)n(C2CCOCC2)c(=O)n4C)cn1 [AZD0156] + C=CCn1c(=O)c2cnc(Nc3ccc(N4CCN(C)CC4)cc3)nc2n1-c1cccc(C(C)(C)O)n1 [AZD1775] (first compound max 1 µM, partner max 1 µM) have recorded Bliss excess that is -0.04 or more?
met

Kindly determine if Bliss excess recorded for COc1nnc2ccc(N3CCC(c4ccc(OCCN5CCN(C)C(=O)[C@H]5C)cc4)CC3)nn12 [AZD5153] + C[C@@H]1COCCN1C2=NC(=NC(=C2)C3(CC3)[S@](=N)(=O)C)C4=C5C=CNC5=NC=C4 [AZD6738] (first compound max 1 µM, 7x7, partner max 10 µM) is above or exactly -0.04.
not met

Decide: Bliss excess of COc1cccc(OCCCN)c1-c1cc(Nc2cnc(C#N)cn2)n[nH]1 [Prexasertib] + O=C(c1cc(Cc2n[nH]c(=O)c3ccccc23)ccc1F)N1CCN(C(=O)C2CC2)CC1 [Olaparib] (first compound max 1 µM, 7x7, partner max 10 µM) >= -0.04?
not met

Bliss excess >= -0.04 for CCN(CCO)CCCOc1ccc2c(Nc3cc(CC(=O)Nc4cccc(F)c4)[nH]n3)ncnc2c1 [AZD2811] + C=CCn1c(=O)c2cnc(Nc3ccc(N4CCN(C)CC4)cc3)nc2n1-c1cccc(C(C)(C)O)n1 [AZD1775] (first compound max 1 µM, partner max 1 µM) ?
not met

In plain terms: is recorded Bliss excess at least -0.04 for COc1nnc2ccc(N3CCC(c4ccc(OCCN5CCN(C)C(=O)[C@H]5C)cc4)CC3)nn12 [AZD5153] + CCN(CCO)CCCOc1ccc2c(Nc3cc(CC(=O)Nc4cccc(F)c4)[nH]n3)ncnc2c1 [AZD2811] (first compound max 1 µM, 7x7, partner max 1 µM) ?
not met

Threshold query (Bliss excess >= -0.04) on COc1cc2c(cc1OCCCCCOc1cc3c(cc1OC)C(=O)N1C=C(C)C[C@H]1C=N3)N=C[C@@H]1CC(C)=CN1C2=O [SG3199] + O=C(c1cc(Cc2n[nH]c(=O)c3ccccc23)ccc1F)N1CCN(C(=O)C2CC2)CC1 [Olaparib] (first compound max 0.001 µM, 7x7, partner max 10 µM)
met

Quick check: does Cc1c2c(nn1C)CSCc1cc(n(C)n1)CSc1cc(c3ccccc3c1)OCCCc1c(C(=O)O)n(C)c3c-2c(Cl)ccc13 [AZD5991] + Cn1cnc2c(F)c(Nc3ccc(Br)cc3Cl)c(C(=O)NOCCO)cc21 [Selumetinib] (first compound max 1 µM, 7x7, partner max 3 µM) have Bliss excess greater than or equal to -0.04?
met

Record CC1(C)CCC(CN2CCN(c3ccc(C(=O)NS(=O)(=O)c4ccc(NCC5CCOCC5)c([N+](=O)[O-])c4)c(Oc4cnc5[nH]ccc5c4)c3)CC2)=C(c2ccc(Cl)cc2)C1 [Venetoclax] + C1CN(CCC1(C(=O)N[C@@H](CCO)C2=CC=C(C=C2)Cl)N)C3=NC=NC4=C3C=CN4 [Capivasertib] (first compound max 1 µM, 7x7, partner max 3 µM) ; criterion: Bliss excess no lower than -0.04. Met?
met

---

# Test system: HC-1 (Other Blood Carcinomas)
# assayExplanation: combination Emax (second highest fraction inhibited in the dose matrix, 72 h); higher = more inhibition; extreme values may be limits of the assay
property: combination Emax
# output: bare number, no unit

- Cc1cc2ncnn2cc1Nc1ncc2c(n1)n(C1CCOCC1)c(=O)n2C [AZD7648] + C[C@@H]1COCCN1C2=NC(=NC(=C2)C3(CC3)[S@](=N)(=O)C)C4=C5C=CNC5=NC=C4 [AZD6738] (first compound max 10 µM, 7x7, partner max 10 µM): 0.616

Which value of combination Emax has been reported for CN(CCO)CC[C@H](CSc1ccccc1)Nc1ccc(S(=O)(=O)NC(=O)c2ccc(N3CCC([C@@H](O)c4ccccc4-c4ccc(Cl)cc4)CC3)cc2)cc1S(=O)(=O)C(F)(F)F [AZD4320] + C[C@@H](Nc1cc(F)cc(F)c1)c1cc(C(=O)N(C)C)cc2c(=O)cc(N3CCOCC3)oc12 [AZD8186] (first compound max 1 µM, 7x7, partner max 3 µM) in the records?
0.965

---

# System: EW-13 (Ewing's Sarcoma)
# assayExplanation: combination Emax (second highest fraction inhibited in the dose matrix, 72 h); higher = more inhibition; extreme values may be limits of the assay
property: combination Emax

Below: 3 compounds and their reported combination Emax.
* CCN(CCO)CCCOc1ccc2c(Nc3cc(CC(=O)Nc4cccc(F)c4)[nH]n3)ncnc2c1 [AZD2811] + C=CCn1c(=O)c2cnc(Nc3ccc(N4CCN(C)CC4)cc3)nc2n1-c1cccc(C(C)(C)O)n1 [AZD1775] (first compound max 1 µM, partner max 1 µM) | 0.355
* Cc1c2c(nn1C)CSCc1cc(n(C)n1)CSc1cc(c3ccccc3c1)OCCCc1c(C(=O)O)n(C)c3c-2c(Cl)ccc13 [AZD5991] + Cn1cnc2c(F)c(Nc3ccc(Br)cc3Cl)c(C(=O)NOCCO)cc21 [Selumetinib] (first compound max 1 µM, 7x7, partner max 3 µM) | 0.338
* COc1cccc(OCCCN)c1-c1cc(Nc2cnc(C#N)cn2)n[nH]1 [Prexasertib] + Cc1cc2ncnn2cc1Nc1ncc2c(n1)n(C1CCOCC1)c(=O)n2C [AZD7648] (first compound max 1 µM, 7x7, partner max 10 µM) | 0.512

Let us examine a further case.
I'd like to know its combination Emax. The compound in question is COc1cccc2c1C(=O)c1c(O)c3c(c(O)c1C2=O)C[C@@](O)(C(=O)CO)C[C@@H]3O[C@H]1C[C@H](N)[C@H](O)[C@H](C)O1 [Doxorubicin] + Cc1cc2ncnn2cc1Nc1ncc2c(n1)n(C1CCOCC1)c(=O)n2C [AZD7648] (first compound max 1 µM, 7x7, partner max 10 µM)
0.745

---

# Tested on: OCUB-M (Breast Carcinoma)
# assayExplanation: Bliss excess, mean over the matrix (fraction); higher = more synergy
property: Bliss excess
Give the figure only, with no unit attached.

Some entries whose results are on file:
• CCN(CCO)CCCOc1ccc2c(Nc3cc(CC(=O)Nc4cccc(F)c4)[nH]n3)ncnc2c1 [AZD2811] + O=C(c1cc(Cc2n[nH]c(=O)c3ccccc23)ccc1F)N1CCN(C(=O)C2CC2)CC1 [Olaparib] (first compound max 1 µM, 7x7, partner max 10 µM) = -0.0413
• CCN(CCO)CCCOc1ccc2c(Nc3cc(CC(=O)Nc4cccc(F)c4)[nH]n3)ncnc2c1 [AZD2811] + C=CCn1c(=O)c2cnc(Nc3ccc(N4CCN(C)CC4)cc3)nc2n1-c1cccc(C(C)(C)O)n1 [AZD1775] (first compound max 1 µM, partner max 1 µM) = 0.0312
• COc1cccc(OCCCN)c1-c1cc(Nc2cnc(C#N)cn2)n[nH]1 [Prexasertib] + C=CCn1c(=O)c2cnc(Nc3ccc(N4CCN(C)CC4)cc3)nc2n1-c1cccc(C(C)(C)O)n1 [AZD1775] (first compound max 1 µM, partner max 1 µM) = 0.232

Entry C[C@@H]1COCCN1c1cc(C2([S@](C)(=N)=O)CC2)nc(-c2ccnc3[nH]ccc23)n1 [AZD6738] + O=C(c1cc(Cc2n[nH]c(=O)c3ccccc23)ccc1F)N1CCN(C(=O)C2CC2)CC1 [Olaparib] (first compound max 10 µM, 7x7, partner max 10 µM) : reported Bliss excess = ?
0.0347

May I ask what Bliss excess has been recorded for CC1(C)CCC(CN2CCN(c3ccc(C(=O)NS(=O)(=O)c4ccc(NCC5CCOCC5)c([N+](=O)[O-])c4)c(Oc4cnc5[nH]ccc5c4)c3)CC2)=C(c2ccc(Cl)cc2)C1 [Venetoclax] + COc1cc(Nc2ncc3c(n2)-c2ccc(Cl)cc2C(c2c(F)cccc2OC)=NC3)ccc1C(=O)O [Alisertib] (first compound max 1 µM, 7x7, partner max 10 µM) ?
0.111

For the compound shown here, COc1cccc(OCCCN)c1-c1cc(Nc2cnc(C#N)cn2)n[nH]1 [Prexasertib] + Cc1cc2ncnn2cc1Nc1ncc2c(n1)n(C1CCOCC1)c(=O)n2C [AZD7648] (first compound max 1 µM, 7x7, partner max 10 µM) , give the reported Bliss excess.
-0.0611

Dear colleague, I am looking for the recorded Bliss excess of the following compound: O=C(c1cc(Cc2n[nH]c(=O)c3ccccc23)ccc1F)N1CCN(C(=O)C2CC2)CC1 [Olaparib] + COc1nnc2ccc(N3CCC(c4ccc(OCCN5CCN(C)C(=O)[C@H]5C)cc4)CC3)nn12 [AZD5153] (first compound max 10 µM, 7x7, partner max 1 µM)
-0.0609
